System: ovarian cancer cell lines
Assay: qHTS ATPlite cell viability, ovarian cancer cell lines
Format: cell-based, human
Settings: Ovarian cell line killer; mean of cell lines fulfilling criteria; 48 h; read-out: Average IC50
assayEndpoint: pIC50
# pIC50: negative log10 of molar concentration; output just the value

Solved cases below.
# compoundStructure, number
records = [
    ("CNC(=O)c1ccccc1Nc1nc(Nc2ccc(N3CCOCC3)cc2OC)ncc1Cl", 5.27),
    ("CNc1nccc(-c2cccnc2Oc2cc(C(=O)Nc3cccc(C(F)(F)F)c3)ccc2C)n1", 4.80),
]

ovarian cancer cell lines data for C=CC(=O)Nc1cccc(Oc2nc(Nc3ccc(N4CCN(C)CC4)cc3)ncc2Cl)c1 ; its pIC50: 4.91

====

System: HEK 293T cells
Experiment: cells
Conditions: HEK 293T, this screen (ATPlite), 48 h
assayEndpoint: Efficacy (%) (HEK 293T toxicity)
Give just the numeric value; % need not be written.

Measured Efficacy (%) (HEK 293T toxicity) of O=C(CCCCCCC(=O)Nc1ccccc1)NO [Vorinostat] : 64.7

Recorded Efficacy (%) (HEK 293T toxicity) (compound Cc1ccc(C(=O)Nc2ccc(CN3CCN(C)CC3)c(C(F)(F)F)c2)cc1C#Cc1cnc2cccnn12 [Ponantinib] ): 92

Per the record, COc1cc(N2CCC(N3CCN(C)CC3)CC2)ccc1Nc1ncc(Cl)c(Nc2ccccc2S(=O)(=O)C(C)C)n1 [NVP-TAE684] has Efficacy (%) (HEK 293T toxicity) of 91.8

GET /value?item= CCN(CC)Cc1ccc2cc(COC(=O)Nc3ccc(C(=O)NO)cc3)ccc2c1 [Givinostat] &field=Efficacy (%) (HEK 293T toxicity) returns 65.6

====

System: PA-1 cells
Assay: ATP content (ATPlite) cell viability assay in PA-1 cells
Assay type: cell-based, human
Conditions: Homo sapiens; PA-1; confirmation screen, 48 h; read-out: Avg IC50
assayEndpoint: pIC50
pIC50 field: float, defined as -log10 of concentration (mol/L).

Examples from the recorded data:
# compound, studyTarget, pIC50
measured = [
    ("CC(C)CC(=O)Nc1[nH]nc2c1CN(C(=O)C1CCN(C)CC1)C2(C)C [PHA-793887]", "PA-1 cells", 6.71),
    ("COc1cccc2c1C(=O)c1c(O)c3c(c(O)c1C2=O)C[C@@](O)(C(=O)CO)C[C@@H]3O[C@H]1C[C@H](N)[C@H](O)[C@H](C)O1 [Adriamycin]", "PA-1 cells", 6.24),
    ("COc1c(C)c2c(c(O)c1C/C=C(\\C)CCC(=O)OCCN1CCOCC1)C(=O)OC2 [Mycophenolate mofetil]", "PA-1 cells", 6.20),
    ("CC[C@@]1(O)C(=O)OCc2c1cc1n(c2=O)Cc2c-1nc1ccccc1c2/C=N/OC(C)(C)C [Gimatecan]", "PA-1 cells", 7.47),
]

Okay, next one:
The reported value for COc1cccc2c1C(=O)c1c(O)c3c(c(O)c1C2=O)C[C@@](O)(C(=O)CO)C[C@@H]3O[C@H]1C[C@H](N)[C@H](O[C@@H]2CCCCO2)[C@H](C)O1 [Pirarubicin] in terms of pIC50 is 6.08

====

Test system: PA-1 cells
Assay: ATP content (ATPlite) cell viability assay in PA-1 cells
Type: cell-based, human
Conditions: Homo sapiens, PA-1; 24 hours incubation; assay optimization; read-out: IC50 (PA-1)
assayEndpoint: IC50
Please provide the amount together with its unit, number first.

Item: COc1cccc2c1C(=O)c1c(O)c3c(c(O)c1C2=O)C[C@@](O)(C(=O)CO)C[C@@H]3O[C@H]1C[C@H](N)[C@H](O)[C@H](C)O1 | IC50: 109 nM
